Assay: clinical plasma pharmacokinetics
Assay type: in vivo, human
Conditions: human, plasma, oral, 70 mg, t½, Range, Single dose, N=5

smiles_data: CNC(=O)c1cccc(-c2ccc3c(N4CCOC[C@@H]4C)nc(N4CCOC[C@@H]4C)nc3n2)c1
half-life: 1.35 to 5.98 h

----------
Test: clinical plasma pharmacokinetics
Format: in vivo, human
Conditions: human, plasma, oral, 70 mg, Cmax, Range, Single dose, N=5

smiles_data: CNC(=O)c1cccc(-c2ccc3c(N4CCOC[C@@H]4C)nc(N4CCOC[C@@H]4C)nc3n2)c1
Cmax: 1440 to 3690 ng/mL

----------
Experiment: clinical plasma pharmacokinetics
Assay type: in vivo, human
Settings: human, plasma, oral, 70 mg, AUC, Range, Single dose, N=5

molecule: CNC(=O)c1cccc(-c2ccc3c(N4CCOC[C@@H]4C)nc(N4CCOC[C@@H]4C)nc3n2)c1 [AZD2014]
AUC: 6010 to 14200 ng·h/mL
